Test system: HOP-62 NSCLC
assay.explanation: NCI tumour cell line growth inhibition, 48 h
parameter.measured: TGI

{"compound": "O=C1NC(=O)C23C(=O)NC(=O)C12C1C=CC3CC1 (configuration not stated)", "result": "> 10 µM"}
{"compound": "O=C(Cn1c2c(c3ccccc31)CCCC2)N1CCOCC1", "result": "> 100 µM"}
{"compound": "O=C(O)c1ccc(C2=Nc3cccc4cccc(c34)N2)cc1", "result": "> 100 µM"}
{"compound": "COc1ccccc1CNC(=O)/C=C/c1ccc(O)c(O)c1", "result": "> 100 µM"}
{"compound": "O=C1/C(=C/c2ccc([N+](=O)[O-])cc2)Sc2scc(-c3cccc([N+](=O)[O-])c3)[n+]21", "result": "33.9 µM"}
{"compound": "CC(=O)O[C@H]1C(=O)[C@@]2(C)[C@H]([C@H](OC(=O)c3ccccc3)[C@]3(O)C[C@H](OC(=O)[C@H](O)[C@@H](NC(=O)C(C)(O)C(C)O)c4ccccc4)C(C)=C1C3(C)C)[C@]1(OC(C)=O)CO[C@@H]1C[C@@H]2O (some centres not stated)", "result": "5.21 µM"}
{"compound": "CC(C)C(=O)CC(c1ccc(Br)cc1)N1N=C(C(C)C)CC1c1ccc(Br)cc1 (configuration not stated)", "result": "> 100 µM"}
{"compound": "COC(=O)C1OC(SCCN)C(O)C(O)C1O (configuration not stated)", "result": "> 100 µM"}
{"compound": "CC(=O)OCc1ncccc1C(OC(C)=O)OC(C)=O", "result": "> 100 µM"}
{"compound": "c1cc2nnc1SCCSCCCSCCS2", "result": "> 100 µM"}
{"compound": "CCSc1nnc(-c2ccc3ccccc3c2O)n1-c1ccccc1", "result": "> 100 µM"}
{"compound": "Cc1ccc(S(=O)(=O)Nc2cc(=O)[nH]c3c2CCC3)cc1", "result": "> 100 µM"}
{"compound": "CN(CCN1C(=O)c2cccc3cccc(c23)C1=O)CCN1C(=O)c2cccc3cccc(c23)C1=O", "result": "26.4 µM"}
{"compound": "Cc1ccc(Nn2c(SCC(=O)Nc3nc(-c4ccccc4)cs3)nc(C)c2C)cc1", "result": "> 100 µM"}
{"compound": "O=C(Cc1ccccc1)Nc1nc2ccc(Cl)cc2c2nc(-c3ccco3)nn12", "result": "> 62.4 µM"}
{"compound": "CC(C)(C)COS(=O)OCC(C)(C)C", "result": "> 100 µM"}
{"compound": "CC1(C)CC(C(=O)OCCCCCCCCCCC[P+](c2ccccc2)(c2ccccc2)c2ccccc2)C(C)(C)N1O (configuration not stated)", "result": "0.904 µM"}
{"compound": "O=C(O)c1ccccc1C(=O)Nc1cc2c(cc1Br)-c1ccccc1C2=O", "result": "> 100 µM"}
{"compound": "O=S(C(c1ccccc1)=P(c1ccccc1)(c1ccccc1)c1ccccc1)c1ccc(Cl)cc1 (configuration not stated)", "result": "64.6 µM"}
{"compound": "COc1ccc(C2C(C(=O)O)=C(CO)Oc3cc4c(cc32)OCO4)c(OC)c1 (configuration not stated)", "result": "72 µM"}
{"compound": "C/C(=N\\NC(N)=S)C(CN1CCCCC1)C(C1=C(O)c2ccccc2OC1)c1ccccc1 (configuration not stated)", "result": "> 100 µM"}
{"compound": "COc1ccccc1N1CCN(CC(O)Cn2c(=O)c3c(OC)nc(C)cc3c(=O)n2-c2ccccc2)CC1 (configuration not stated)", "result": "> 100 µM"}
{"compound": "OC1CCSc2ccccc21 (configuration not stated)", "result": "> 100 µM"}
{"compound": "COc1cc(/C=C/C(=O)N[C@@H]2C(=O)N3[C@@H]2SC(C)(C)[C@@H]3C(=O)O)ccc1O", "result": "> 100 µM"}
{"compound": "COC(=O)[C@]12CC[C@@H](C)[C@H](C)[C@@H]1C1=CC[C@@H]3[C@@]4(C)C(C=O)=C[C@@](C)(COC(=O)c5ccco5)C4=CC[C@@]3(C)[C@]1(C)CC2", "result": "13.6 µM"}
{"compound": "Cn1c(=S)c2[nH]c(SCc3cccnc3)nc2n(C)c1=O", "result": "> 100 µM"}
{"compound": "C#C[C@]1(O)[C@@H](CO)O[C@@H](n2ccc(=O)[nH]c2=O)[C@@H]1O", "result": "1.05 µM"}
{"compound": "O=C1c2ccccc2-c2c1c1ccc3ccccc3c1n2-c1ccccc1", "result": "58.7 µM"}
{"compound": "CC(C)(C)[Si](C)(C)O/N=C\\c1cccc(O[Si](C)(C)C(C)(C)C)c1", "result": "38.9 µM"}
{"compound": "NC(=S)NN=C1Cc2ccccc2C1", "result": "> 100 µM"}
{"compound": "O=C(c1nc2ccc(Cl)cc2[nH]c1=O)C(O)c1cccc([N+](=O)[O-])c1 (configuration not stated)", "result": "> 100 µM"}
{"compound": "C#CCOCn1cnc2c(N)ncnc21", "result": "> 100 µM"}
{"compound": "O=C(/C=C/c1cc(O)ccc1O)c1ccc(Cl)cc1", "result": "52.2 µM"}
{"compound": "Oc1ccc(Cl)cc1C1=Nn2c(COc3ccc4c(c3)CCCC4)nnc2SC1", "result": "27.5 µM"}
{"compound": "CCN(CC)CCOc1ccccc1-n1c(C)ccc1-c1ccccc1", "result": "31.1 µM"}
{"compound": "COc1c(OC)c(OC)c2c(=O)c(OC)c(-c3ccc4c(c3)OCO4)oc2c1OC", "result": "> 100 µM"}
{"compound": "CN(C)c1cccc2c(S(=O)(=O)NCCCNCCN)cccc12", "result": "> 100 µM"}
{"compound": "CC(=O)NC(CCCCN(Cc1ccccc1)C(=O)N(C)N=O)C(=O)NCc1ccccc1 (configuration not stated)", "result": "> 100 µM"}
{"compound": "Cn1c(=O)c2[nH]c(CCS)nc2n(C)c1=O", "result": "> 100 µM"}
{"compound": "O=C1C2CCCCC2C(=O)N1n1c(Cc2ccccc2)n[nH]c1=O (configuration not stated)", "result": "> 100 µM"}
{"compound": "CCCCSCCC(N)P(=O)(O)O (configuration not stated)", "result": "> 100 µM"}
{"compound": "CCN1Cc2c(/C=C/c3ccccc3)nc3ccc(OC)cc3c2N(c2cccc(Cl)c2)C1", "result": "3.09 µM"}

----------
System: A498 renal
assay.explanation: NCI tumour cell line growth inhibition, 48 h

{"compound": "Nc1csc(-c2scc3c2OCCO3)c1N", "bound.type": "=", "TGI / µM": 36.6}
{"compound": "OCC(O)C(OC1OC(CO)C(O)C(O)C1O)c1nn(-c2ccc(Cl)cc2)c2nc3cc(Cl)c(Cl)cc3nc12 (stereo not drawn)", "bound.type": ">", "TGI / µM": 100}
{"compound": "O=C1CCCc2cc3c(cc21)CC1(C3)Cc2cc3c(cc2C1)C(=O)CCC3", "bound.type": "=", "TGI / µM": 53.6}
{"compound": "COc1ccc2c3c([nH]c2c1)[C@H](C=C(C)C)N1C(=O)[C@@H]2CCCN2C(=O)[C@@H]1C3", "bound.type": ">", "TGI / µM": 100}
{"compound": "CC(=O)OCc1ncccc1C(OC(C)=O)OC(C)=O", "bound.type": ">", "TGI / µM": 100}
{"compound": "CCSc1nc(N)c(C#N)c(-c2ccc(OC)c(OC)c2)c1C#N", "bound.type": "=", "TGI / µM": 40.7}
{"compound": "CC(C)=CC1(C)/C(=N\\O)C(C)(CC(C)C)C(=O)N1O (stereo not drawn)", "bound.type": ">", "TGI / µM": 100}
{"compound": "O=C(NN1CCCCC1)c1cc2cc(CCl)ccc2oc1=O", "bound.type": ">", "TGI / µM": 100}
{"compound": "C/C=C/C(O)P(=O)(OC)OC (stereo not drawn)", "bound.type": "=", "TGI / µM": 0.955}
{"compound": "O=C(O)C(C(F)(F)F)C(F)(F)F (tested in a mixture with another compound)", "bound.type": ">", "TGI / µM": 100}
{"compound": "COc1ccc(OC)c2c1ccc1c(C)c3ccccc3c(C)c12", "bound.type": ">", "TGI / µM": 100}
{"compound": "O=c1c2cc(Br)ccc2n(C2OC(CO)C(O)C(O)C2O)c(=S)n1-c1ccccc1 (stereo not drawn)", "bound.type": ">", "TGI / µM": 100}
{"compound": "FC(F)(F)c1nc2c(ccc3[nH]c4c(-c5ccccc5)nccc4c32)[nH]1", "bound.type": ">", "TGI / µM": 100}
{"compound": "CCOC1Oc2ccccc2-c2nc(N)ncc21 (stereo not drawn)", "bound.type": "=", "TGI / µM": 81.3}
{"compound": "NC(=O)/C=C/c1c[nH]c2nccnc12", "bound.type": "=", "TGI / µM": 12.5}
{"compound": "CCCCCCCCCCCCCC/C(C(=O)O)=C(\\C)C(=O)O", "bound.type": ">", "TGI / µM": 100}
{"compound": "COc1ccc(/C=C\\c2cc(OC)c(OC)c(OC)c2)cc1N/C=C\\C(=O)c1c[nH]c2ccccc12", "bound.type": "=", "TGI / µM": 0.0153}
{"compound": "Clc1ccc2c(NCCNc3nc(N4CCCCC4)nc4ccccc34)ccnc2c1", "bound.type": "=", "TGI / µM": 22.1}
